TARGET_ENTITY: human mGluR2 receptor (Homo sapiens)
Construct: expressed in transfected cells; host or cells: CHO cells (membrane preparation)
PROTOCOL_SUMMARY: [35S]GTPγS binding assay (GTPγS-PAM): positive allosteric modulation in presence of glutamate at EC25, membranes from transfected CHO cells
Assay type: biochemical
MEASUREMENT_CONTEXT: in presence of mGluR2 agonist glutamate at predetermined EC25 concentration, averages of duplicate values of 11-concentration response curves, read-out: GTPgS - hR2 PAM pEC50 (converted)
Protocol: The compounds provided in the present invention are positive allosteric modulators of mGluR2. These compounds appear to potentiate glutamate responses by binding to an allosteric site other than the glutamate binding site. […] The [^35S]GTPγS binding is a functional membrane-based assay used to study G-protein coupled receptor (GPCR) function whereby incorporation of a non-hydrolysable form of GTP, [^35S]GTPγS (guanosine 5′-triphosphate, labelled with gamma-emitting ^35S), is measured. […]
PARAMETER: EC50 (nM)

[A] CC(C)CCn1ccc(-c2ccc3c(ccn3-c3ccccc3)c2)c(C#N)c1=O
[B] N#Cc1c(N2CCC(c3ccccc3)CC2)ccn(CC2CCCCO2)c1=O (stereo not drawn)
[C] CC(C)CCn1ccc(-c2ccc3c(c2)OCCO3)c(C#N)c1=O
[D] CC(C)CCn1ccc(-c2ccc(CNCc3ccccc3F)cc2)c(C#N)c1=O
Challenge: Could you put the items above in increasing order of their EC50? Answer format: the labels, ordered as requested.
Response given: A, C, D, B
(A: 50.1 nM, C: 501 nM, D: 1260 nM, B: 2000 nM)

[I] COc1cc(F)c(-c2ccn(CCC(C)C)c(=O)c2C#N)c(F)c1
[II] CC(C)CCn1ccc(OCc2ccccc2)c(C#N)c1=O
[III] CC(C)CCn1ccc(OCCc2ccccc2)c(C#N)c1=O
[IV] CC(C)CCn1ccc(-c2ccc(Oc3ccc(C#N)cc3)cc2)c(C#N)c1=O
Challenge: Output the entries ranked by EC50 from maximum down to minimum. Provide your answer as the labels ordered per the instruction.
Response given: III, II, I, IV

[1] N#Cc1c(N2CCN(Cc3ccc(OC(F)(F)F)c(Cl)c3)CC2)ccn(CC2CC2)c1=O
[2] CC(=O)COc1ccc(-c2ccn(CCC(C)C)c(=O)c2C#N)cc1
[3] CC(C)CCn1ccc(-c2ccc(Cl)s2)c(C#N)c1=O
Challenge: Rank ascending by EC50. List the labels in the requested order.
Response given: 3, 1, 2

###

TARGET_ENTITY: human mGluR2 receptor (Homo sapiens, UniProt Q14416)
Construct: expressed in transfected cells; host or cells: CHO cells (membrane preparation)
Sequence (Q14416 19-872): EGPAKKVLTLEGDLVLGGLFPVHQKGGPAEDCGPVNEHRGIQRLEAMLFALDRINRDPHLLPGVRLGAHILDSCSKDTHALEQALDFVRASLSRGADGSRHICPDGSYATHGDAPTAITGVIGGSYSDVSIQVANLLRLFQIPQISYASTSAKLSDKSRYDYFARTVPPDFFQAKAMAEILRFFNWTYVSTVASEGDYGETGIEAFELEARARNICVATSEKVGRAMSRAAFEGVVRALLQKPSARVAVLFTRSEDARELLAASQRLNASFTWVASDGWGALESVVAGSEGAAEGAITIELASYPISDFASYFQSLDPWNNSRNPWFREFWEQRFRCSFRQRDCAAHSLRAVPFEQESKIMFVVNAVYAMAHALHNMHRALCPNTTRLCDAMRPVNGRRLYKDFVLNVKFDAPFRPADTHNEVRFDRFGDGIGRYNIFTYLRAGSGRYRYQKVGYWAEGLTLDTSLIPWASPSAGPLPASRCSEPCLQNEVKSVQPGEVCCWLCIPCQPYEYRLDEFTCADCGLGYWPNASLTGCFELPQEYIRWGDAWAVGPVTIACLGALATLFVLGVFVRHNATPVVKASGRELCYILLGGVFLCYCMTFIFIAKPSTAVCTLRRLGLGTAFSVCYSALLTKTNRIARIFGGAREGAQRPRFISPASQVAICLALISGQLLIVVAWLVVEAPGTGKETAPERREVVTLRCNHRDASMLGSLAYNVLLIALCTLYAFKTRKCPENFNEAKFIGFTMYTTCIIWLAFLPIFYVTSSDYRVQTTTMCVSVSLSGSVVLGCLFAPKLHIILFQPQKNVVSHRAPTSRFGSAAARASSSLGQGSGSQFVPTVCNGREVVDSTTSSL
PROTOCOL_SUMMARY: [35S]GTPγS binding assay (GTPγS-PAM): positive allosteric modulation in presence of glutamate at EC25, membranes from transfected CHO cells
Assay type: biochemical
MEASUREMENT_CONTEXT: in presence of mGluR2 agonist glutamate at predetermined EC25 concentration, averages of duplicate values of 11-concentration response curves, read-out: GTPgS - hR2 PAM pEC50 (converted)
PARAMETER: EC50 (nM)

Recorded results for 4 molecules are shown here.
>>> df
                              record_smiles  parameter  recorded_number
0     CNc1ccc(-c2ccn(CCC(C)C)c(=O)c2C#N)cc1       EC50              501
1  CC(C)CCn1ccc(-c2ccc(CC(=O)N(C)C)cc2)c(C#N)c1=O       EC50             6310
2     CSc1ccc(-c2ccn(CCC(C)C)c(=O)c2C#N)cc1       EC50              158
3   CCCCn1ccc(N2CCN(c3ccccn3)CC2)c(C#N)c1=O       EC50             2000

[a] CC(C)CCn1ccc(-c2ccc3c(c2)CCN3)c(C#N)c1=O
[b] CC(C)CCn1ccc(-c2ccc(OCc3ccncc3)cc2F)c(C#N)c1=O
[c] COc1ccc(N2CCN(c3ccn(CCC(C)C)c(=O)c3C#N)CC2)cc1
Challenge: # rank by EC50, ascending (min first) // rank by listing labels in the order requested
Response given: b, c, a
(b: 398 nM, c: 794 nM, a: 2000 nM)

###

PARAMETER: melting point (°C)

In [3]: df
Out[3]:
                                   compound      parameter  readout_units  recorded_number
0  N#Cc1c(N2CCN(Cc3ccc(OCC4CC4)c(Cl)c3)CC2)ccn(CC2CC2)c1=O  melting point             °C              157
1  CC(C)CCn1ccc(N2CCN(c3nccc(C(F)(F)F)n3)CC2)c(C#N)c1=O  melting point             °C              155
2  CN(Cc1ccccc1)C1CCN(c2ccn(CCOc3ccccc3)c(=O)c2C#N)CC1  melting point             °C              159
3  CC(C)CCn1ccc(N2CCc3c(oc4ccccc34)C2)c(C#N)c1=O  melting point             °C              130
4  CC(=O)N1CCN(c2cccc(-c3ccn(CCC(C)C)c(=O)c3C#N)c2)CC1  melting point             °C              143
5  COc1ccc2c(c1)C1CCCN(c3ccn(CCC(C)C)c(=O)c3C#N)C1CC2 (stereo not drawn)  melting point             °C              169

###

TARGET_ENTITY: human mGluR2 receptor (Homo sapiens, UniProt Q14416)
Construct: expressed in transfected cells; host or cells: CHO cells (membrane preparation)
PROTOCOL_SUMMARY: [35S]GTPγS binding assay (GTPγS-PAM): positive allosteric modulation in presence of glutamate at EC25, membranes from transfected CHO cells
Assay type: biochemical
MEASUREMENT_CONTEXT: in presence of mGluR2 agonist glutamate at predetermined EC25 concentration, averages of duplicate values of 11-concentration response curves, read-out: GTPgS - hR2 PAM pEC50 (converted)
PARAMETER: EC50 (nM)

                                   compound  recorded_number
0  CC(C)CCn1ccc(C2CCN(Cc3cccc(C(F)(F)F)c3)CC2)c(C#N)c1=O [3-014]              200
1  CC(C)CCn1ccc(-c2ccc(OCC3CC3)cc2)c(C#N)c1=O [1-133]              200
2  CC(C)CCn1ccc(Nc2ccc(Oc3ccccc3)cc2)c(C#N)c1=O [1-301]              200

###

TARGET_ENTITY: human mGluR2 receptor (Homo sapiens)
Construct: expressed in transfected cells; host or cells: CHO cells (membrane preparation)
PROTOCOL_SUMMARY: [35S]GTPγS binding assay (GTPγS-PAM): positive allosteric modulation in presence of glutamate at EC25, membranes from transfected CHO cells
Assay type: biochemical
MEASUREMENT_CONTEXT: in presence of mGluR2 agonist glutamate at predetermined EC25 concentration, averages of duplicate values of 11-concentration response curves, read-out: GTPgS - hR2 PAM pEC50 (converted)
PARAMETER: EC50 (nM)

>>> print(df.to_string())
                              record_smiles  readout_units  recorded_number
0  CCCCn1ccc(-c2cccc(Oc3ccccn3)c2)c(C#N)c1=O             nM             6310

[a] CC(C)CCn1ccc(N2CCN(c3nccc(C(F)(F)F)n3)CC2)c(C#N)c1=O
[b] CC(C)CCn1ccc(-c2ccc(OCc3cccc(C#N)c3)cc2)c(C#N)c1=O
Challenge: Lab notebook, comparison: a versus b , higher EC50 goes to which? Reply briefly: the label of your chosen item.
Response given: a

[A] CCCCn1ccc(-c2ccc(Oc3ncccn3)cc2)c(C#N)c1=O
[B] CC(C)CCn1ccc(-c2ccc(NC3CCS(=O)(=O)CC3)cc2)c(C#N)c1=O
Challenge: Smaller EC50 value, A vs B ? # reply format: chosen label
Response given: B
(B: 2510 nM, A: 5010 nM)

[I] CC(C)CCn1ccc(N2CCC(N(C)Cc3ccccc3)CC2)c(C#N)c1=O
[II] CC(C)CCn1ccc(-c2ccc(OCc3ccccc3)cc2)c(C#N)c1=O
Challenge: Could you check which of I and II has a smaller value for EC50? Indicate your choice by writing its label.
Response given: II

###

TARGET_ENTITY: human mGluR2 receptor (Homo sapiens)
Construct: expressed in transfected cells; host or cells: CHO cells (membrane preparation)
PROTOCOL_SUMMARY: [35S]GTPγS binding assay (GTPγS-PAM): positive allosteric modulation in presence of glutamate at EC25, membranes from transfected CHO cells
Type: biochemical
MEASUREMENT_CONTEXT: in presence of mGluR2 agonist glutamate at predetermined EC25 concentration, averages of duplicate values of 11-concentration response curves, read-out: GTPgS - hR2 PAM pEC50 (converted)
PARAMETER: EC50 (nM)

Illustrative cases are given below, each with its answer.
>>> print(df.to_string())
                              record_smiles  recorded_number
0  Cc1nc(-c2ccccc2)sc1-c1ccn(CCC(C)C)c(=O)c1C#N              316
1        CC(C)CCn1ccc(CCc2ccccc2)c(C#N)c1=O             1260
2  CC(C)CCn1ccc(-c2ccc(-c3ccccc3)cc2)c(C#N)c1=O             25.1
3  CC(C)CCn1ccc(-c2ccc(Oc3ccccc3)cc2)c(C#N)c1=O             39.8
4  N#Cc1c(N2CCN(Cc3cc(F)cc(F)c3)CC2)ccn(Cc2ccc(F)cc2)c1=O             3980
5  CC(C)CCn1ccc(NC2CCN(c3ccc(C(F)(F)F)cn3)CC2)c(C#N)c1=O              251
6  N#Cc1c(-c2ccccc2)ccn(Cc2ccc(-c3ccccc3)cc2)c1=O              158
7  CC(C)CCn1ccc(N2CCC(c3ccccc3)CC2)c(C#N)c1=O             63.1

[I] CC(C)CCn1ccc(-c2ccc(N3CCCCC3)cc2)c(C#N)c1=O
[II] CC(C)CCn1ccc(N2CCC3(CCc4ccccc43)CC2)c(C#N)c1=O
Challenge: # compare EC50 for I vs II ; return the one with the smaller value Answer by quoting the chosen item's label.
Response given: II
